FYI, the data here is from patent US9810690B2.

Target: KRAS E62C/WT (Homo sapiens, UniProt P01116, E62C)
Construct: made in house
Experiment: Covalent modification of KRAS mutant by competition probes (TOF mass spectrometry, Agilent RapidFire)
Type: binding
Conditions: probe 30 μM
metricName: % Covalent Modification with Indicated Protein at 6 hr, E62C/WT (%)
State the answer as a number, implicitly in %.

Asked: % Covalent Modification with Indicated Protein at 6 hr, E62C/WT for C=CS(=O)(=O)N1CCC(Nc2nc(N3CCN(C(C)=O)CC3)c3cc(Cl)c(-c4c(O)cccc4F)c(F)c3n2)CC1 ?
Given back: 82

Asked: Any idea what its % Covalent Modification with Indicated Protein at 6 hr, E62C/WT is? The compound is C=CS(=O)(=O)NC1CCCN(c2nc(N3CCN(C(C)=O)CC3)c3cc(Cl)c(-c4c(O)cccc4F)c(F)c3n2)C1 (stereo not shown)
Given back: 72

Asked: Would you mind telling me what % Covalent Modification with Indicated Protein at 6 hr, E62C/WT value was observed for C=CC(=O)N1CCC(Nc2nc(N3CCN(C(C)=O)CC3)c3cc(Cl)c(-c4c(O)cccc4F)c(F)c3n2)C1 (stereo not shown) ?
Given back: 14

Asked: // query % Covalent Modification with Indicated Protein at 6 hr, E62C/WT value for entry C=CS(=O)(=O)NC1CCN(c2nc(N3CCN(C(C)=O)CC3)c3cc(Cl)c(-c4c(O)cccc4F)c(F)c3n2)C1 (stereo not shown)
Given back: 86
